- System: Escherichia coli TOP10;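 note: peptides expressed intracellularly from a pBAD plasmid library in pooled LB shake-flask culture, induced with 0.3% L-arabinose, DNA abundance read by NGS, three biological replicates, DESeq2 with apeglm shrinkage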
- protocol: shrunken log2 fold change of peptide-encoding DNA abundance (4.5 h post-induction vs induction); higher = less antimicrobial activity (less host growth inhibition)
- experimental_conditions: time post-induction: 4.5 h; library: site-saturation at positions 5, 18, 19, 20
property: shrunken log2 fold change

RRIRCRPPRLPRPRPRPPKVPRP :: -0.138
RRIRLRPPRLPRPRPRPMTRPRP :: 0.314
RRIRERPPRLPRPRPRPINGPRP :: 0.0683
RRIRFRPPRLPRPRPRPIHTPRP :: 0.0523
RRIRQRPPRLPRPRPRPLCRPRP :: -0.272

Let us examine a further case.
Task item: Sample RRIRWRPPRLPRPRPRPRMPPRP — what was its shrunken log2 fold change?
Reply: 0.395
